Conditions: 24 h, pH 2.2
assay endpoint: Solubility (pH 2.2) (μg/mL)

- Cc1cc(COc2c(C)cccc2-c2cccc(N3C[C@@H]4C[C@]4(C(=O)O)C3)n2)cc2c1CN(C1CCOC1)CC2 (some centres unmarked) [Compound 25]: 100
- Cc1c(COc2ccccc2-c2cccc(N3CC[C@@]4(C(=O)O)C[C@H]4C3)n2)ccc2c1CCN(C1CCOCC1)C2 [Compound 3]: 140
- CO[C@@H]1CN(c2nc(-c3cccc(C)c3OCc3cc(C)c4c(c3)CCN(CC3COCCO3)C4)cs2)CC[C@@H]1C(=O)O (some centres unmarked) [Compound 176]: 140
- Cc1cc(COc2c(C)cccc2-c2cccc(N3C[C@@H]4C[C@]4(C(=O)O)C3)n2)cc2c1CN(C1CCOC1)CC2 (some centres unmarked) [Compound 26]: 110
- CO[C@H]1CN(c2nc(-c3cccc(C)c3OCc3cc(C)c4c(c3)CCN(CC3COCCO3)C4)cs2)CC[C@H]1C(=O)O (single isomer, unassigned) [Compound 169]: 130
- COC[C@H]1N(c2cccc(-c3cccc(C)c3OCc3cc(C)c4c(c3)CCN(C3CCOC3)C4)n2)C[C@@H]2C[C@@]21C(=O)O (single isomer, unassigned) [Compound 52]: 110
- Cc1cc(COc2c(C)cccc2-c2csc(N3CC[C@@]4(C(=O)O)C[C@H]4C3)n2)cc2c1CN(CC1COCCO1)CC2 (some centres unmarked) [Compound 93]: 140
- CO[C@@H]1CN(c2cccc(-c3cc(C)ccc3OCc3cc(C)c4c(c3)CCN(C3CCOC3)C4)n2)CC[C@@H]1C(=O)O (some centres unmarked) [Compound 78]: 110
